# MEASUREMENT TARGET: T1, Human PD-1 (AcroBiosystems) (human, UniProt Q15116 25-167, limits assumed)
# T1 construct: Bought recombinant protein, amine-coupled to the SPR chip
# T1 sequence (Q15116 25-167 limits assumed): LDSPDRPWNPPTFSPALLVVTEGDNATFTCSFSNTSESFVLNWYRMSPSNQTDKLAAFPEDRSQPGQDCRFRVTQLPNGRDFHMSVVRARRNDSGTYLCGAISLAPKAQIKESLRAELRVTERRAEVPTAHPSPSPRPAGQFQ
# EXPERIMENT NOTES: SPR (ProteOn XPR), human PD-1 amine-coupled on GLC chip, antibody as analyte, Langmuir model
Give kon for every item shown.
Just so you know, I need the unit written after the number.

Worked set:
BINDER | kon
N7NL (antibody, human IgG4 S228P, kappa, V domains shown, Full-length IgG4 from the pZRCIII hyg.IgG4 vector) VH: QVQLVESGGGVVQPGRSLRLDCKASGITFSNSGMHWVRQAPGKGLEWVAVIWYDGSKRYYADSVKGRFTISRDNSKNTLFLQMNSLRAEDTAVYYCATNSDYWGQGTLVTVSS VL: EIVLTQSPATLSLSPGERATLSCRASQSVSSYLAWYQQKPGQAPRLLIYDASNRATGIPARFSGSGSGTDFTLTISSLEPEDFAVYYCQQSSNWPRTFGQGTKVEIKR | 1.95e+06 M⁻¹ s⁻¹
IP-H4.19L1 (antibody, human IgG4 S228P, kappa, V domains shown) VH: QVQLVQSGVEVKKPGASVKVSCKASGYTFTTYYIYWVRQAPGQGLEWMGGVNPSNSGTNYNENYKNRVTLTTDSSTTTAYMELKSLQFDDTAVYYCARRDYRYDMGFDYWGQGTTVTVSS VL: EIVLTQSPATLSLSPGERATLSCRASKGVSTSGYSYLHWYQQKPGQAPRLLIYLASYLESGVPARFSGSGSGTDFTLTISSLEPEDFAVYYCQHSRDLPLTFGGGTKVEIKR | 1.54e+06 M⁻¹ s⁻¹
N5NL (antibody, human IgG4 S228P, kappa, V domains shown, Full-length IgG4 from the pZRCIII hyg.IgG4 vector. 'NSNL' in the text is an OCR form of N5NL; also called NSNL) VH: QVQLVESGGGVVQPGRSLRLDCKASGITFSNSGMHWVRQAPGKGLEWVAVIWYDGSKRYYADSVKGRFTISRDNSKNTLFLQMNSLRAEDTAVYYCATNSDFWGQGTLVTVSS VL: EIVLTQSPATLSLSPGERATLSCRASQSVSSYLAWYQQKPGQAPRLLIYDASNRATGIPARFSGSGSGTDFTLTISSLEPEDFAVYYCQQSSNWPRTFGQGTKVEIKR | 2.03e+06 M⁻¹ s⁻¹
N6NL (antibody, human IgG4 S228P, kappa, V domains shown, Full-length IgG4 from the pZRCIII hyg.IgG4 vector) VH: QVQLVESGGGVVQPGRSLRLDCKASGITFSNSGMHWVRQAPGKGLEWVAVIWYDGSKRYYADSVKGRFTISRDNSKNTLFLQMNSLRAEDTAVYYCATNSDHWGQGTLVTVSS VL: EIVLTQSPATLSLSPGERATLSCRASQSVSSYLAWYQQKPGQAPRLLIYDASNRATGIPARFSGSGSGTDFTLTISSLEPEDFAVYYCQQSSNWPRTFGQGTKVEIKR | 1.86e+06 M⁻¹ s⁻¹
IP-H4.2L1 (antibody, human IgG4 S228P, kappa, V domains shown) VH: QVQLVQSGVEVKKPGASVKVSCKASGYTFTTYYIYWVRQAPGQGLEWMGGVNPSNGGTNYNENYKNRVTLTTDSSTTTAYMELKSLQFDDTAVYYCARRDYRYDMGYDYWGQGTTVTVSS VL: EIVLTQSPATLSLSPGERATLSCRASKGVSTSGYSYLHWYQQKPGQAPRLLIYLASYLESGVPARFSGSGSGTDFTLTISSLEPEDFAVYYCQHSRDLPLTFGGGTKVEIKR | 1.67e+06 M⁻¹ s⁻¹

Next item in the queue.
Task: // returns reported kon for input IP-H4.36L1 (antibody, human IgG4 S228P, kappa, V domains shown) VH: QVQLVQSGVEVKKPGASVKVSCKASGYTFTTYYIYWVRQAPGQGLEWMGGVNPSNGGTNYNQNYKNRVTLTTDSSTTTAYMELKSLQFDDTAVYYCARRDYRYDMGFDYWGQGTTVTVSS VL: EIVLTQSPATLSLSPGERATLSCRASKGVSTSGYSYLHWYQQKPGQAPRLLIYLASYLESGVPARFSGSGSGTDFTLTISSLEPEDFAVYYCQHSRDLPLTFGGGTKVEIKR
Result: 1.96e+06 M⁻¹ s⁻¹
